molecular target: GABA-A alpha5 (α5β3γ2) (Homo sapiens, UniProt P18507+P31644); construct: expressed in transfected cells; host or cells: HEK293 (transient transfection; membranes); test: GABA A radioligand binding assay, competition for [3H]flumazenil; details: GABA-A alpha 5 (second value, Ki implied), [3H]flumazenil 1 nM, HEK293 membranes; second value
MEASURED PARAMETER: Ki

Lab book: Ki of CC(C)[C@@H]1N=C(c2ccccc2F)c2cc(Cl)ccc2NC1=S noted as > 36 µM

====

biological target: hM1 (Homo sapiens, UniProt P11229); construct: expressed in transfected cells; host or cells: CHO; test: FLIPR intracellular calcium assay for modulator activity at the muscarinic M1 receptor in CHO human M1 cells; format: cell-based
Reported IC50 values are given for each entry in this list.
Field: numeric (nM). Do not append units.

Examples with answers:
# MOLECULE, IC50 / nM
data = [
    ("S=C1Nc2ccc(Cl)cc2C(c2ccccc2)=N[C@H]1C1CC1", 165),
    ("S=C1Nc2ccc(Cl)cc2C(c2ccccc2)=N[C@H]1CC1CC1", 311),
    ("COC(C)C1N=C(c2ccccc2)c2cc(Cl)ccc2NC1=S (stereo not shown)", 354),
    ("S=C1Nc2ccc(Cl)cc2C(c2ccccc2)=N[C@@H]1Cc1ccccc1 (single isomer, unassigned)", 1140),
    ("CC[C@@H]1N=C(c2ccccc2)c2cc(Cl)ccc2NC1=S", 103),
    ("CSCC[C@@H]1N=C(c2ccccc2)c2cc(Cl)ccc2NC1=S", 1200),
]

Lab book: IC50 of CC(C)[C@@H]1N=C(c2cccnc2)c2cc(Br)ccc2NC1=S noted as 275

Lab book: IC50 of S=C1Nc2ccccc2C(c2ccccc2)=NC1Cc1ccc(Cl)c(Cl)c1 (stereo not shown) noted as 1670
